# assay_remarks: Mouse PK test: plasma concentration after intravenous or oral administration
# Format: in vivo, mice (C57BL/6J)
# details: male, C57BL/6J, in vivo, po, 50 mg/kg
Starred links: 1 amine or outer side, 2 acyl side, 3 side chain; linkers in the order of their positions; H or OH if unused. Non-standard residues stand in square brackets, D forms with d. Residues, ends and D or L forms follow the SMILES beside them. *: point of attachment. NMedβ3hAla = C[C@H](CC(=O)[*:2])N(C)[*:1]; NMeF = CN[C@@H](Cc1ccccc1)C(=O)O; NMeI = CC[C@H](C)[C@H](NC)C(=O)O; NMeβAla = CN(CCC(=O)[*:2])[*:1]; NMeL = CN[C@@H](CC(C)C)C(=O)O; Sar = CNCC(=O)O; tBu = CC(C)(C)*
measurement_kind: Cmax
Remember to put the unit after the number in your answer.

Per the record, CC[C@H](C)[C@H]1C(=O)N[C@@H](CC(C)C)C(=O)N(C)CC(=O)N(C)[C@@H](CC(C)C)C(=O)N[C@@H](CC(C)C)C(=O)N(C)[C@H](C)CC(=O)N(C)[C@@H](CC(C)C)C(=O)N(C)CCC(=O)N(C)[C@@H](CC(C)C)C(=O)N[C@@H](COC(C)(C)C)C(=O)N(C)[C@@H](Cc2ccccc2)C(=O)N(C)CCC(=O)N(C)[C@@H](Cc2ccccc2)C(=O)N1C [pd144] (cyclo(L[Sar][NMeL]L[NMedβ3hAla][NMeL][NMeβAla][NMeL]S(tBu)[NMeF][NMeβAla][NMeF][NMeI])) has Cmax of 7000 ng/mL
